Each recorded value in this set is attributed to patent US12384798B2.

# Assay Overview: Pharmacokinetic evaluation of compounds in rats
# Type: in vivo
# Test Context: male, rat, plasma; SD rats, po 10 mg/kg; read-out: t1/2 (po) (converted)
Readout: half-life (h)
Provide only the numeric value, understood in h.

**Query** # query: half-life of entry COc1ccccc1[C@H](Cn1c(=O)n([C@H]2C[C@H](CC(=O)O)C2)c(=O)c2c(C)c(-c3ncco3)sc21)OC1CCOCC1 [c-3-1]
**Result** 4.65

**Query** Next compound up: COc1ccccc1[C@H](Cn1c(=O)n(C(C)(C)C(=O)O)c(=O)c2c(C)c(-c3ncco3)sc21)OC1CCOCC1 [ND630, reference compound]
**Result** 0.65

**Query** Now try COc1ccccc1[C@H](Cn1c(=O)n([C@H]2C[C@@H](CC(=O)O)C2)c(=O)c2c(C)c(-c3ncco3)sc21)OC1CCOCC1 [c-3-2] .
**Result** 4.82

###

System: ACC2 (Homo sapiens (Human), UniProt O00763) | Read-out: pIC50
Sequence (O00763 whole entry, species assumed): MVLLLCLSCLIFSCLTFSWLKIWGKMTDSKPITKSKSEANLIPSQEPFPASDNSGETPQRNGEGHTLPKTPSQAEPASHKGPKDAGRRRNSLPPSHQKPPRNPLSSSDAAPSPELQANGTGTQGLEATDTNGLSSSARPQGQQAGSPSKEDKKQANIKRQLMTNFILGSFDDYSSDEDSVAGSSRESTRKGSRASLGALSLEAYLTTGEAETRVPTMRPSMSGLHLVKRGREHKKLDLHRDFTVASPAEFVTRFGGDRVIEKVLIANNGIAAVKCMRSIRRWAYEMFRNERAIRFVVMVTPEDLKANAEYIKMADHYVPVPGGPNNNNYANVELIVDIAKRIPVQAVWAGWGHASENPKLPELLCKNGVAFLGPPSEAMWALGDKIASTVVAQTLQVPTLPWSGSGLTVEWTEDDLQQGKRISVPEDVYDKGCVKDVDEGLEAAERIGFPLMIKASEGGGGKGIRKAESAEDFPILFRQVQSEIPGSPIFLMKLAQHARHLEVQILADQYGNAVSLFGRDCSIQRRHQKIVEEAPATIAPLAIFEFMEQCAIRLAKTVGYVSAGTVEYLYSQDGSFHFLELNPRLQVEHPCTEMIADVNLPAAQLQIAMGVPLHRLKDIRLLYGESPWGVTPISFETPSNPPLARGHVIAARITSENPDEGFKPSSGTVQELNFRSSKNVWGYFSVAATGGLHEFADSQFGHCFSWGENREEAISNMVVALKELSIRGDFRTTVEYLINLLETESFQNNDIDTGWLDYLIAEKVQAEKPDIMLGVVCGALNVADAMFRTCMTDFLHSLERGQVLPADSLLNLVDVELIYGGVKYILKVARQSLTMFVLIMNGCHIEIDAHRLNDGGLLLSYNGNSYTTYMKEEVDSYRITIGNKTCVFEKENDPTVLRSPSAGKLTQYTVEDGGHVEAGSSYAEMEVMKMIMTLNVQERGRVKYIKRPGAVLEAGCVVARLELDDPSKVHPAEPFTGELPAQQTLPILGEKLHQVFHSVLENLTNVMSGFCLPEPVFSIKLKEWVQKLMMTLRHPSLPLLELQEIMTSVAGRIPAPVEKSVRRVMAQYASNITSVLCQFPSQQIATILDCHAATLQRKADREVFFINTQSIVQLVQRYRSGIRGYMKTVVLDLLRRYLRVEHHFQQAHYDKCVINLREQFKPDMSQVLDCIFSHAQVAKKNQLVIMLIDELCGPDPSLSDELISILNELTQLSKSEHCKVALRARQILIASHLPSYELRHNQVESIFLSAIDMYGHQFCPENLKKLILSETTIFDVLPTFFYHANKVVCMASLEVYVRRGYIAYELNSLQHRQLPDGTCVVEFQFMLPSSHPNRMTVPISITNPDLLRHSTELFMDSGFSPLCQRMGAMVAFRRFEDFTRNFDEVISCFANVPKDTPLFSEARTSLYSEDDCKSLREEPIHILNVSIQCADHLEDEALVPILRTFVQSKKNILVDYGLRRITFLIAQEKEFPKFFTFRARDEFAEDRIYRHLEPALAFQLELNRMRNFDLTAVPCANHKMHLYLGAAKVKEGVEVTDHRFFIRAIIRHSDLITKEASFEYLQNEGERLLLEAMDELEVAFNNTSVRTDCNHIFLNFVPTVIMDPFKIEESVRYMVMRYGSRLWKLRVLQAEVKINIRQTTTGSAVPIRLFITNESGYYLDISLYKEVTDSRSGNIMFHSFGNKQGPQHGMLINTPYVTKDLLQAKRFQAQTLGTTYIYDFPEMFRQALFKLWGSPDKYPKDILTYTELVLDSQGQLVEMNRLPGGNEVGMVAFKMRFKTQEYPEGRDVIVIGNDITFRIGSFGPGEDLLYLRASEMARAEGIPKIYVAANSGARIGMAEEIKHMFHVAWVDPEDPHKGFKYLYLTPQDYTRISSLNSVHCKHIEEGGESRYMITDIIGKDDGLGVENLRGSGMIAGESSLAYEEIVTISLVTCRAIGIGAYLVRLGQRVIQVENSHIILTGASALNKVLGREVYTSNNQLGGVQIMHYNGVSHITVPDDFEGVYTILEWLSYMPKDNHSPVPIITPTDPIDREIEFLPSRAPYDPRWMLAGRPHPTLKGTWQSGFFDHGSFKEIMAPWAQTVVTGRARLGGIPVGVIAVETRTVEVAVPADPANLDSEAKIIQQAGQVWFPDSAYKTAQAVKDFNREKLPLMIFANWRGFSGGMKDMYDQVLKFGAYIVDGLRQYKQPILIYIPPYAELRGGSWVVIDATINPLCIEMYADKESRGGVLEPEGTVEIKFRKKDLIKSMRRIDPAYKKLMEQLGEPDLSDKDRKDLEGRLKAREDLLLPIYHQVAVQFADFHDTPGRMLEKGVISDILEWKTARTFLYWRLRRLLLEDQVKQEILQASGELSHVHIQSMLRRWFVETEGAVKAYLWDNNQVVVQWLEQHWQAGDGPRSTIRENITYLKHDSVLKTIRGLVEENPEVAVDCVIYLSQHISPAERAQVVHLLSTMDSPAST
Scale note: pIC50 = -log10(concentration in M).

COc1ccccc1[C@H](Cn1c(=O)n(C2CC(CC(=O)O)C2)c(=O)c2c(C)c(-c3ncco3)sc21)OC1CCOCC1 (some centres unmarked) [c-3] ... 8.52

Let us examine a further case.
**Query** May I ask what pIC50 has been recorded for COc1ccccc1[C@H](Cn1c(=O)n([C@H]2C[C@H](CC(=O)O)C2)c(=O)c2c(C)c(-c3ncco3)sc21)OC1CCOCC1 [c-3-1] ?
**Result** 8.05

###

# Assay Overview: Pharmacokinetic evaluation of compounds in rats
# Assay type: in vivo
# Test Context: male, rat, plasma; SD rats; po 10 mg/kg, iv 2 mg/kg; read-out: F (%) bioavailability
# Description: This example was intended to investigate the pharmacokinetics of the compounds of the present invention and ND630 in SD rats under the conditions of intravenous (iv) and intragastric administration (po). […] The concentration of a target compound was detected by LC-MS/MS. According to the plasma concentration-time curve, pharmacokinetic parameters were calculated by using a non-compartmental model (NCA) of software WinNonlin 7.0. […]
# bioavailability listing for each entry below
Give the quantity in %, number only.

Observe how each entry below is paired with its result.
COc1ccccc1[C@H](Cn1c(=O)n([C@H]2C[C@@H](CC(=O)O)C2)c(=O)c2c(C)c(-c3ncco3)sc21)OC1CCOCC1 ... 62.3
COc1ccccc1[C@H](Cn1c(=O)n([C@H]2C[C@H](CC(=O)O)C2)c(=O)c2c(C)c(-c3ncco3)sc21)OC1CCOCC1 ... 99.6

**Query** Fill blank: measured bioavailability of the molecule COc1ccccc1[C@H](Cn1c(=O)n(C(C)(C)C(=O)O)c(=O)c2c(C)c(-c3ncco3)sc21)OC1CCOCC1 [ND630, reference compound] is ____.
**Result** 35.8

###

# Assay Overview: Pharmacokinetic evaluation of compounds in rats
# Assay type: in vivo
# Test Context: male, rat, plasma; SD rats, po 10 mg/kg; read-out: AUC0-∞ (po)
# Protocol: This example was intended to investigate the pharmacokinetics of the compounds of the present invention and ND630 in SD rats under the conditions of intravenous (iv) and intragastric administration (po). […] The concentration of a target compound was detected by LC-MS/MS. According to the plasma concentration-time curve, pharmacokinetic parameters were calculated by using a non-compartmental model (NCA) of software WinNonlin 7.0. […]
Readout: AUC(0-inf) (ng·h/mL)
Return type: number; implicit unit ng·h/mL.

Some solved cases for reference:
COc1ccccc1[C@H](Cn1c(=O)n([C@H]2C[C@@H](CC(=O)O)C2)c(=O)c2c(C)c(-c3ncco3)sc21)OC1CCOCC1 ... 4350
COc1ccccc1[C@H](Cn1c(=O)n([C@H]2C[C@H](CC(=O)O)C2)c(=O)c2c(C)c(-c3ncco3)sc21)OC1CCOCC1 ... 15700

Alright, here's another molecule for you.
**Query** Which AUC(0-inf) value is on record for COc1ccccc1[C@H](Cn1c(=O)n(C(C)(C)C(=O)O)c(=O)c2c(C)c(-c3ncco3)sc21)OC1CCOCC1 [ND630, reference compound] ?
**Result** 5090
